Please provide measured IC50 for the entries that follow.
Target: CDK2/Cyclin E1 (Homo sapiens)
Assay: NanoBRET live-cell target engagement, CDK2-NanoLuc/Cyclin E1 in HEK-293
Format: binding
Conditions: CDK2/E1; read-out: IC50 (nM) Replicate 1
Your answer should be a plain number; it is taken to be in nM.

IN: Need IC50, item CC[C@H](CO)Nc1nc(Nc2cccc(-c3ccccn3)c2)c2ncn(C(C)C)c2n1 [(R) - DRF053]
OUT: 370

IN: I have this compound here, C[C@H]1CC[C@H](n2c3cnccc3c3cnc(Nc4ccc5c(n4)CCN(C(=O)CO)C5)nc32)CC1 [AMG 925] , and I need its recorded IC50.
OUT: 171

IN: Bench note: what IC50 did CCCCOc1c(C(=O)c2c(F)cc(C)cc2F)c[nH]c2nncc1-2 [BMS-265246] show?
OUT: 29

IN: Which IC50 is listed for CNC1CCN(C(=O)c2ccc(Nc3ncc(F)c(-c4cnc(C)n4C(C)C)n3)cc2)C1 (stereo not shown) [AZD5597] ?
OUT: 6.7
